The measurements presented in this section are drawn from patent US20260132197A1.

Molecular target: T1, wild type human CD47 (Acro Biosystems, cat. no. CD7-H5227) (human, UniProt Q08722 19-139)
T1 construct: Bought protein used as SPR analyte; also called Human CD47 wt; wild-type CD47
T1 sequence (Q08722 19-139 limits assumed): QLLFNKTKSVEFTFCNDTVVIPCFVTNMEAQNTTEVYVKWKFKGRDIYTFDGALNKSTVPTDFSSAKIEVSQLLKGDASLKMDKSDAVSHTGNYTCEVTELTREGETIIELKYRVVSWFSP
Assay: SPR, IgG captured, CD47 in flow; exp 2;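 note: IgG from HEK293 cell supernatants tested by SPR on a BIAcore T200, C33G mutein prevents IgV homodimers for monovalent affinity, KD derived from association and dissociation rates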
parameter: kon (M⁻¹ s⁻¹)
Entry rule: numbers only, all in M⁻¹ s⁻¹.

The examples below pair each entry with its known result.
binder	value-measured
108VH5.M10 / 108VL1.M5 (antibody, human IgG4 S228P, kappa, V domains shown, Full-length IgG4 (S228P), kappa; also called VH5.M10 VL1.M5) VH: EVQLVQSGAEVKKPGASVKVSCKASGYTFTHHWIHWVRQAPGQGLEWMGMIDASDSETRYAQKFQGRVTMTRDTSTSTVYMELSSLRSEDTAVYYCARLGRYYFDYWGQGTLVTVSS VL: EIVLTQSPATLSLSPGERATLSCRASQSVSSYLAWYQQKPGQAPRLLIYGASNRATGIPARFSGSGSGTDFTLTISSLEPEDFAVYYCGESYGHLYTFGGGTKVEIKR	660000
chimeric antibody 108C10A6 (antibody, V domains shown, Chimeric antibody with mouse variable domains; captured through human Fc; also called VH / VL) VH: QMQLQQSGPQLVRPGASVKISCKTSGYSFTHHWIHWMKQRPGQGLEWIGMIDPSDSETRLSQKFKDKATLTVDASSSTAYMQLNSPTSEDSALYFCARLGRYYFDYWGQGTTLTVSS VL: NIVMTQSPRSMSMSVGERVTLSCKASENVGTYISWYQQKPDQSPKLLIYGASNRYTGVPDRFTGSGSGTDFTLTISTVQAEDLADYHCGESYGHLYTFGGGTKLEIK	1.6e+06
108VH5.M15 / 108VL1.M5 (antibody, human IgG4 S228P, kappa, V domains shown, Full-length IgG4 (S228P), kappa; also called VH5.M15 VL1.M5) VH: EVQLVQSGAEVKKPGASVKVSCKASGYTFTHHWIHWVRQAPGQGLEWMGMIDASDSSTRYAQKFQGRVTMTRDTSTSTVYMELSSLRSEDTAVYYCARLGRYYFDYWGQGTLVTVSS VL: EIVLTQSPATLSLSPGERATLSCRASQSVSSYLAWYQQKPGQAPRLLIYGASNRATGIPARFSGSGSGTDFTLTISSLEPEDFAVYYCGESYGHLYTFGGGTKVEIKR	220000
108VH5.M11 / 108VL1.M5 (antibody, human IgG4 S228P, kappa, V domains shown, Full-length IgG4 (S228P), kappa; also called VH5.M11 VL1.M5) VH: EVQLVQSGAEVKKPGASVKVSCKASGYTFTHHYIHWVRQAPGQGLEWMGMIDASDSETRYAQKFQGRVTMTRDTSTSTVYMELSSLRSEDTAVYYCARLGRYYFDYWGQGTLVTVSS VL: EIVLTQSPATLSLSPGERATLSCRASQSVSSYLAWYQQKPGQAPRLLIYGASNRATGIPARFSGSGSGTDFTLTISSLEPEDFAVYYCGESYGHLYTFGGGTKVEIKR	260000
108VH5.M14 / 108VL1.M5 (antibody, human IgG4 S228P, kappa, V domains shown, Full-length IgG4 (S228P), kappa; also called VH5.M14 VL1.M5) VH: EVQLVQSGAEVKKPGASVKVSCKASGYTFTHHWIHWVRQAPGQGLEWMGMIDASDGETRYAQKFQGRVTMTRDTSTSTVYMELSSLRSEDTAVYYCARLGRYYFDYWGQGTLVTVSS VL: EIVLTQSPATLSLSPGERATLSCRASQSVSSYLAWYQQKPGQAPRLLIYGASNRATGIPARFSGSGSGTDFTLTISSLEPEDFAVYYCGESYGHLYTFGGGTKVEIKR	690000

Task: Name the reported kon value associated with the binder 108VH5 / 108VL1.M5 (antibody, human IgG4 S228P, kappa, V domains shown, Full-length IgG4 (S228P), kappa; also called VH5 VL1.M5) VH: EVQLVQSGAEVKKPGASVKVSCKASGYSFTHHWIHWVRQAPGQGLEWMGMIDPSDSETRLSQKFKDRVTMTRDTSTSTVYMELSSLRSEDTAVYYCARLGRYYFDYWGQGTLVTVSS VL: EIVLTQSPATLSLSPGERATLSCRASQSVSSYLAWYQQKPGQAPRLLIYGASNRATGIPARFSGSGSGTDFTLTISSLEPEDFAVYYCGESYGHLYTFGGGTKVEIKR
Result: 720000

Task: Name the reported kon value associated with the binder 108VH5.M12 / 108VL1.M5 (antibody, human IgG4 S228P, kappa, V domains shown, Full-length IgG4 (S228P), kappa; also called VH5.M12 VL1.M5) VH: EVQLVQSGAEVKKPGASVKVSCKASGYTFTHHWMHWVRQAPGQGLEWMGMIDASDSETRYAQKFQGRVTMTRDTSTSTVYMELSSLRSEDTAVYYCARLGRYYFDYWGQGTLVTVSS VL: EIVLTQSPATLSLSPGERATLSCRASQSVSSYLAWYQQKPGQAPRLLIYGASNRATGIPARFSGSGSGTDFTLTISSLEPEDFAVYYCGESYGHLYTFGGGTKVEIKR
Result: 730000
